Provide the recorded % Phosphatase Activity (compared to DMSO) PRL-1 for the entries that follow.
- TARGET ENTITY: recombinant PRL-1 (Homo sapiens, UniProt Q93096)
- Construct: 6xHis (N, cleaved yes); made in house; host or cells: E. coli One Shot BL21 Star
- Sequence (Q93096 whole entry): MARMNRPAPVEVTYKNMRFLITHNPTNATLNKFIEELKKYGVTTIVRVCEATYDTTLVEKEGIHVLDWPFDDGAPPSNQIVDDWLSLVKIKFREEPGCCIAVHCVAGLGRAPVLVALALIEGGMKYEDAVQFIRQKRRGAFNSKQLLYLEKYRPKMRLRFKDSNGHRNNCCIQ
- MEASUREMENT NOTES: In vitro phosphatase assay (DiFMUP hydrolysis), PRL-1; note: test concentration or dose not given here
- Type: biochemical
- EXPERIMENTAL CONDITIONS: FDA-approved drug screen; compared to DMSO
Structures can show the parent of a compound that is named as a salt.
Numbers only, in %.

NC(=O)[C@@H]1CCCN1C(=O)[C@H](Cc1cnc[nH]1)NC(=O)[C@@H]1CCC(=O)N1 [Protirelin]: 97

Below are some compounds; for each one, tell me its % Phosphatase Activity (compared to DMSO) PRL-1.
1. CNCC[C@@H](Oc1ccccc1C)c1ccccc1 [Atomoxetine HCl]
2. O=[N+]([O-])O[C@@H]1CO[C@H]2[C@@H]1OC[C@@H]2O [Isosorbide Mononitrate]

Solution:
1: 98; 2: 91

Lab note: each compound below needs its % Phosphatase Activity (compared to DMSO) PRL-1 filled in.
1. CCN1CCN(c2cc3c(cc2F)c(=O)c(C(=O)O)cn3C2CC2)CC1 [Enrofloxacin]
2. Oc1c(Br)cc(Br)c2cccnc12 [Broxyquinoline]
3. C[C@H](NC(=O)C(=O)Nc1ccccc1C(C)(C)C)C(=O)N[C@@H](CC(=O)O)C(=O)COc1c(F)c(F)cc(F)c1F [Emricasan]
4. CCC(=O)O[C@]1(C(=O)CCl)[C@@H](C)C[C@H]2[C@@H]3CCC4=CC(=O)C=C[C@]4(C)[C@@]3(F)[C@@H](O)C[C@@]21C [Clobetasol propionate]
5. S=c1nc[nH]c2nc[nH]c12 [Mercaptopurine (6-MP)]

Solution:
[152, 94, 95, 92, 93]

* * *

Consider the following molecules; for each one, report its % Phosphatase Activity (compared to DMSO) PRL-2.
- TARGET ENTITY: recombinant PRL-2 (Homo sapiens)
- Construct: 6xHis (N, cleaved yes); made in house; host or cells: E. coli One Shot BL21 Star
- MEASUREMENT NOTES: In vitro phosphatase assay (DiFMUP hydrolysis), PRL-2
- Type: biochemical
- EXPERIMENTAL CONDITIONS: FDA-approved drug screen; compared to DMSO
Counter-ions that a name gives are not always drawn.
One number for each entry, in %.

Known % Phosphatase Activity (compared to DMSO) PRL-2 results, listed for orientation:
CC(=O)NC(CC(C)C)C(=O)O (stereo not shown) [Acetylleucine]: 99
Nc1ccccc1NC(=O)c1ccc(CNC(=O)OCc2cccnc2)cc1 [Entinostat (MS-275)]: 91
CC(=O)Oc1ccc(C(c2ccc(OC(C)=O)cc2)c2ccccn2)cc1 [Bisacodyl]: 104

The following molecules each have a reported value; give each one's % Phosphatase Activity (compared to DMSO) PRL-2.
1. NS(=O)(=O)c1ccc(C(=O)O)cc1 [Carzenide]
2. Nc1ccc(/N=N/c2ccccc2)c(N)n1 [Phenazopyridine HCl]
3. Cc1cc2c(s1)Nc1ccccc1N=C2N1CCN(C)CC1 [Olanzapine]
4. CC(NCCc1ccc(O)cc1)C(O)c1ccc(O)cc1 (stereo not shown) [Ritodrine HCl]
5. CN1CCC(=C2c3ccccc3CCc3cccnc32)CC1 [Azatadine dimaleate]
6. O=C(Nc1cccc2c(=O)cc(-c3nnn[nH]3)oc12)c1ccc(OCCCCc2ccccc2)cc1 [Pranlukast]
7. CC(C)Cc1ccc(C(C)C(=O)O)cc1 (stereo not shown) [Ibuprofen]

Solution:
1. 98
2. 61
3. 97
4. 98
5. 108
6. 205
7. 87

* * *

Could you please report measured % Phosphatase Activity (compared to DMSO) PRL-2 for the items listed next?
- TARGET ENTITY: recombinant PRL-2 (Homo sapiens)
- Construct: 6xHis (N, cleaved yes); made in house; host or cells: E. coli One Shot BL21 Star
- Sequence (Q12974 1-167): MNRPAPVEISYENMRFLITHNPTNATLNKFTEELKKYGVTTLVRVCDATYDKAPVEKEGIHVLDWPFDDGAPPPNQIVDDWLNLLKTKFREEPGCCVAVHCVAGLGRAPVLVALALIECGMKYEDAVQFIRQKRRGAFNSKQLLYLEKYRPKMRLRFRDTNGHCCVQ
- MEASUREMENT NOTES: In vitro phosphatase assay (DiFMUP hydrolysis), PRL-2;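 note: PRL-2 activity read as DiFMUP hydrolysis after 20 min at room temperature with drug, enzyme first pre-reduced at 4 °C for 20 min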
- Format: biochemical
- EXPERIMENTAL CONDITIONS: FDA-approved drug screen; compared to DMSO
Answers are plain numbers, in %.

Solved cases below.
CCCCC[C@H](O)/C=C/[C@H]1[C@H](O)CC(=O)[C@@H]1CCCCCCC(=O)O [Alprostadil]: 113
C#CCC(Cc1cnc2nc(N)nc(N)c2n1)c1ccc(C(=O)N[C@@H](CCC(=O)O)C(=O)O)cc1 (stereo partly shown) [Pralatrexate]: 1210
Cc1cn([C@H]2O[C@@H](CO)[C@H](O)[C@H]2F)c(=O)[nH]c1=O [Clevudine]: 117

# ---- query molecule ----
Exercise: If you can, please state the reported % Phosphatase Activity (compared to DMSO) PRL-2 value of CC(=O)OCC1=C(C(=O)O)N2C(=O)[C@@H](NC(=O)Cc3cccs3)[C@H]2SC1 [Cephalothin] .
Solution: 91

* * *

- TARGET ENTITY: recombinant PRL-3 (Homo sapiens, UniProt O75365)
- Construct: 6xHis (N, cleaved yes); made in house; host or cells: E. coli One Shot BL21 Star
- Sequence (O75365 whole entry): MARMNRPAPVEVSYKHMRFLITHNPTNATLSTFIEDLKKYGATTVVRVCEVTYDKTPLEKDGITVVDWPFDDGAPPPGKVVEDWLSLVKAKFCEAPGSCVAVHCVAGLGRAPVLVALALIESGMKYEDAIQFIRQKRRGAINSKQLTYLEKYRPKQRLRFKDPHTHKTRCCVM
- MEASUREMENT NOTES: In vitro phosphatase assay (DiFMUP hydrolysis), PRL-3; note: test concentration or dose not given here
- Type: biochemical
- EXPERIMENTAL CONDITIONS: FDA-approved drug screen; activity compared to DMSO
ENDPOINT LABEL: % Phosphatase Activity (compared to DMSO) PRL-3 (%)
Numbers only, in %.

Check out these entries, answers already filled in.
Cc1cccc(N(C)C(=S)Oc2ccc3ccccc3c2)c1 [Tolnaftate]: 89
C[C@@H]1CN(c2c(F)c(N)c3c(=O)c(C(=O)O)cn(C4CC4)c3c2F)C[C@H](C)N1 [Sparfloxacin]: 121
C=C1CC[C@H](O)C/C1=C/C=C1\CCC[C@]2(C)[C@@H]([C@H](C)/C=C/[C@H](C)C(C)C)CC[C@@H]12 [Vitamin D2]: 84

Let us examine a further case.
Exercise: Identify the measured % Phosphatase Activity (compared to DMSO) PRL-3 of COc1cc(C(=O)NS(=O)(=O)c2ccccc2C)ccc1Cc1cn(C)c2ccc(NC(=O)OC3CCCC3)cc12 [Zafirlukast] for recombinant PRL-3 (Homo sapiens, UniProt O75365).
Solution: 48

* * *

- TARGET ENTITY: recombinant PRL-1 (Homo sapiens, UniProt Q93096)
- Construct: 6xHis (N, cleaved yes); made in house; host or cells: E. coli One Shot BL21 Star
- MEASUREMENT NOTES: In vitro phosphatase assay (DiFMUP hydrolysis), PRL-1; note: test concentration or dose not given here
- Type: biochemical
- EXPERIMENTAL CONDITIONS: FDA-approved drug screen; compared to DMSO
ENDPOINT LABEL: % Phosphatase Activity (compared to DMSO) PRL-1 (%)
Numbers only, in %.

Answered cases to consult:
CC(=O)c1c(C)c2cnc(Nc3ccc(N4CCNCC4)cn3)nc2n(C2CCCC2)c1=O.O=S(=O)(O)CCO [Palbociclib (PD0332991) Isethionate]: 75
O=C([O-])C(O)[C@H](O)[C@@H](O)[C@H](O)[C@H](O)CO.O=C([O-])C(O)[C@H](O)[C@@H](O)[C@H](O)[C@H](O)CO.[Ca+2] (stereo partly drawn) [Calcium Gluceptate]: 114
C[C@@H]1CC[C@H]2[C@@H](C)C(=O)O[C@@H]3O[C@@]4(C)CC[C@@H]1[C@]32OO4: 100
CNC[C@H](O)[C@@H](O)[C@H](O)[C@H](O)CO.CNC[C@H](O)[C@@H](O)[C@H](O)[C@H](O)CO.C[C@@H](O[C@H]1OCCN(Cc2nn(P(=O)(O)O)c(=O)[nH]2)[C@H]1c1ccc(F)cc1)c1cc(C(F)(F)F)cc(C(F)(F)F)c1 [Fosaprepitant dimeglumine salt]: 87
NC(=O)Cc1cccc(C(=O)c2ccccc2)c1N: 96

Pending compound:
Exercise: Looking for the measured % Phosphatase Activity (compared to DMSO) PRL-1 of `NC(=O)C[S@@+]([O-])C(c1ccccc1)c1ccccc1` , can you help?
Solution: 94

* * *

- TARGET ENTITY: recombinant PRL-1 (Homo sapiens)
- Construct: 6xHis (N, cleaved yes); made in house; host or cells: E. coli One Shot BL21 Star
- MEASUREMENT NOTES: In vitro phosphatase assay (DiFMUP hydrolysis), PRL-1; note: test concentration or dose not given here
- Format: biochemical
- EXPERIMENTAL CONDITIONS: FDA-approved drug screen; compared to DMSO
Structures can show the parent of a compound that is named as a salt.
ENDPOINT LABEL: % Phosphatase Activity (compared to DMSO) PRL-1 (%)
Answers are plain numbers, in %.

Here are 3 compounds together with their reported answers.
O=C1Nc2ccc(Cl)cc2[C@@](C#CC2CC2)(C(F)(F)F)O1: 87
CC(C)c1cc(-c2n[nH]c(=O)n2-c2ccc3c(ccn3C)c2)c(O)cc1O [Ganetespib (STA-9090)]: 91
CC(CN1c2ccccc2Sc2ccccc21)N(C)C.Cl (stereo not shown) [Promethazine HCl]: 99

// batch mode: one % Phosphatase Activity (compared to DMSO) PRL-1 value per listed entry
1. CC(O)(CS(=O)(=O)c1ccc(F)cc1)C(=O)Nc1ccc(C#N)c(C(F)(F)F)c1 (stereo not shown) [Bicalutamide]
2. CCCCCCCCCC(=O)O[C@H]1CC[C@H]2[C@@H]3CCC4=CC(=O)CC[C@@H]4[C@H]3CC[C@]12C [Nandrolone decanoate]
3. C[C@@H]1CC(=O)NN=C1c1ccc(NN=C(C#N)C#N)cc1
4. C[C@H](NCc1ccc(OCc2cccc(F)c2)cc1)C(N)=O [Safinamide Mesylate]

Solution:
1: 118; 2: 93; 3: 76; 4: 103
